// data source = paper PMC9482650

# SYSTEM_TESTED: T1, SNTG2, Q9NY99
# T1 sequence (Q9NY99 68-166, limits assumed, looked up): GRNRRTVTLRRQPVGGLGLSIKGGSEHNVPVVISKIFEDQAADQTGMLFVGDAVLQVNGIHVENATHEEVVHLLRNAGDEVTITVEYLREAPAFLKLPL
# PROTOCOL_DESCRIPTION: holdup assay
# Set-up: key: below the threshold = too weak to quantify, mostly under pKd 3.1 to 4
# CONDITIONS: plain residues with an end cap or a label only (N-terminal biotin on a linker: ado-ado)
REPORTED_PROPERTY: pKd

1) VDSTVKVWTC [TRAF7, Q6Q0C0]    3.49
2) QSLNRMEYIV [JAG1, P78504]    below the threshold
3) TSQESEDTYL [TBC1D10A, Q9BXI6]    below the threshold
4) YNNCLEILRV [DCAF7, P61962]    below the threshold
5) SKSNFGSEPL [KIF17, Q9P2E2]    below the threshold
6) VKPQVSESKL [ACOT8, O14734]    4.19
7) TLPRKRMSSI [GPRC6A, Q5T6X5]    below the threshold
8) LGRSTPQSEV [DGKH, Q86XP1]    below the threshold
9) QGLAERISVL [PRKD2, Q9BZL6]    3.66
10) DTTVPESEDL [MYOZ2, Q9NPC6]    below the threshold
11) LPAHHNATRL [SLC34A1, Q06495;Q06495-1]    4.15
12) PKRSFIESNV [TANC1, Q9C0D5]    4.71
13) SARSRLSSNL [HCN2, Q9UL51]    below the threshold
14) SAAKVLTSMC [GHRHR, Q02643]    below the threshold
15) SGSLKLMTTV [DACT1, Q9NYF0]    3.66
16) PPYRHRNTVV [ERBB4, Q15303]    3.89
17) LSEFKAMDSI [CTNNA1, P35221]    below the threshold
18) SKENVQETQI [LRRC4B, Q9NT99]    4.81
19) VRNLPESEEL [MYOZ3, Q8TDC0]    below the threshold
20) DDEDRLVIEI [ZNF831, Q5JPB2]    below the threshold
21) HSGYRLNDYV [CLDN14, O95500]    below the threshold
22) TSSMRGMDAV [RSRC2, Q7L4I2]    below the threshold
23) QPCFNKLFPL [LPXN, O60711]    below the threshold
24) AKPSRISTVV [IQSEC2, Q5JU85]    below the threshold
25) RRRESYSTTV [EVI5, O60447]    4.13
